- Target Under Test: Voltage-gated inwardly rectifying potassium channel KCNH2 (Homo sapiens, UniProt Q12809)
- Sequence (Q12809 whole entry): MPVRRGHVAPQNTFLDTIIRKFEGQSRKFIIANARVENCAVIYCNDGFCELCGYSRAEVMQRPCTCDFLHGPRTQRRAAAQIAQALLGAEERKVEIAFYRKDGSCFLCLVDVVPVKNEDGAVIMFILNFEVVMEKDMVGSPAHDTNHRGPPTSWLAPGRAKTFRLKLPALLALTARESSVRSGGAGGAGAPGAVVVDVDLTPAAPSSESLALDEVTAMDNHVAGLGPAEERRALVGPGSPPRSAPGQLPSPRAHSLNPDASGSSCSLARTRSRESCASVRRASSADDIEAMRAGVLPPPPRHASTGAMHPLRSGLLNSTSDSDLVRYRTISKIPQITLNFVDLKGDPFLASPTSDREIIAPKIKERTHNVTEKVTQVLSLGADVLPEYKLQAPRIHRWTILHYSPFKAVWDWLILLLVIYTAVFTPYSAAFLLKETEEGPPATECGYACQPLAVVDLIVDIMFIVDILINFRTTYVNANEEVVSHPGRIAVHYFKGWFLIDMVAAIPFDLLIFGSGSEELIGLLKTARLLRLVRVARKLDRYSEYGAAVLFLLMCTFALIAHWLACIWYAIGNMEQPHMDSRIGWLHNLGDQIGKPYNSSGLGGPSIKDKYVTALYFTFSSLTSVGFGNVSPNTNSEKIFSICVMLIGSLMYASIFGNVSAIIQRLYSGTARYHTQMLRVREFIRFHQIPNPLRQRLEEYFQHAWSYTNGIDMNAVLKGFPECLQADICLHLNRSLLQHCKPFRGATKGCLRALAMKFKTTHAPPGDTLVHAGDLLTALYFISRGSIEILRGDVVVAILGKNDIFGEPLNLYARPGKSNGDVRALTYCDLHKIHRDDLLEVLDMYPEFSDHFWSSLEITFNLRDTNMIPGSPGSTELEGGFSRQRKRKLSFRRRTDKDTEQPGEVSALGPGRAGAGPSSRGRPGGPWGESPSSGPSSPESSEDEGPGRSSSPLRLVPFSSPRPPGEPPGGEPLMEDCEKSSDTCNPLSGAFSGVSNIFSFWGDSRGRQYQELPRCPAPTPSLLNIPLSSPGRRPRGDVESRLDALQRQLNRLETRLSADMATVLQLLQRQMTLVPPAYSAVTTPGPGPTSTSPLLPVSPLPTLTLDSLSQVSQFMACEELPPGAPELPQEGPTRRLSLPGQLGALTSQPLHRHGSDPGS
Measure Name: pIC50
Just the number, please; pIC50 means minus log10 of the concentration in mol/L.

Req: // lookup pIC50 for CCN(CC)c1ccc(NC(=O)C2(N(C)C(=O)OCC(C)C)CCc3cccc(OC)c3C2)cc1 (racemic)
Resp: 5.21

---

- Method Summary: Oral bioavailability in rat
- Type: ADME, organism-based
- Measurement Setup: in vivo
Reported bioavailability values are given for each entry in this list.
Unit % implied. Number only.

CCN(CC)c1ccc(NC(=O)C2(N(C)C(=O)OCC(C)C)CCc3cccc(OC)c3C2)cc1 (racemic) = 19

Req: // lookup bioavailability for CCN(CC)c1ccc(NC(=O)C2(NC(=O)OCC(C)C)CCc3cccc(Cl)c3C2)cc1 (racemic)
Resp: 3.8

---

- Method Summary: Inhibition of histaminergic receptor
pIC50: −log10 of the molar value.
Measure Name: pIC50

Req: // lookup pIC50 for CCN(CC)c1ccc(NC(=O)C2(N(C)C(=O)OCC(C)C)CCc3cccc(OC)c3C2)cc1 (racemic)
Resp: < 4.48

---

- Target Under Test: Growth hormone secretagogue receptor type 1 (Homo sapiens, UniProt Q92847)
- Sequence (Q92847 whole entry): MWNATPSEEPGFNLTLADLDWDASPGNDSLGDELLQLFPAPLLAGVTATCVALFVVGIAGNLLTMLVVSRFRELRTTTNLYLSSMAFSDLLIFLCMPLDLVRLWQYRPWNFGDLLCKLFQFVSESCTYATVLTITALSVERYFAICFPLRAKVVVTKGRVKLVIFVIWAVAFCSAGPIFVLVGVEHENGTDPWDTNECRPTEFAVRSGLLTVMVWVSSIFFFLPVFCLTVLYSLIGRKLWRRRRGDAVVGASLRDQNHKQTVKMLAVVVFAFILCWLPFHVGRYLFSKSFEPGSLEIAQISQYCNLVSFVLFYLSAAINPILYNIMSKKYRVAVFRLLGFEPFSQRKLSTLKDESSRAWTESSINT
- Method Summary: Binding affinity to GHSR
Reported IC50 values are given for each entry in this list.

Example entries begin here.
CCN(CC)c1ccc(NC(=O)C2(NC(=O)OCC(C)C)CCc3cccc(Cl)c3C2)cc1 (racemic) = 2 nM (antagonist)
CCN(CC)c1ccc(NC(=O)C2(NC(=O)OCC(C)C)CCc3ccccc3C2)cc1 (racemic) = 11 nM (antagonist)
CCN(CC)c1ccc(NC(=O)C2CCc3ccccc3C2)cc1 (racemic) = 2700 nM (antagonist)

Please look at the following compound next.
Req: // lookup IC50 for CCN(CC)c1ccc(NC(=O)C2(NC(=O)OC(C)(C)C)CCc3ccccc3C2)cc1 (racemic)
Resp: 120 nM (antagonist)

---

- Method Summary: Inhibition of adrenergic receptor
- Set-up: species or system Homo sapiens
pIC50: −log10 of the molar value.
Measure Name: pIC50

Req: // lookup pIC50 for CCN(CC)c1ccc(NC(=O)C2(N(C)C(=O)OCC(C)C)CCc3cccc(OC)c3C2)cc1 (racemic)
Resp: < 4.48

---

- Method Summary: Inhibition of dopaminergic receptor
- Set-up: species or system Homo sapiens
pIC50: −log10 of the molar value.
Measure Name: pIC50

Req: // lookup pIC50 for CCN(CC)c1ccc(NC(=O)C2(N(C)C(=O)OCC(C)C)CCc3cccc(OC)c3C2)cc1 (racemic)
Resp: < 4.48

---

Reported clearance values are given for each entry in this list.
- Method Summary: Clearance in rat
- Format: ADME, organism-based
- Measurement Setup: in vivo
Give the number first and the unit second.

CCN(CC)c1ccc(NC(=O)c2c(-c3c(Cl)cccc3Cl)noc2C)cc1 = 61.7 mL/min/kg

Please look at the following compound next.
Req: // lookup clearance for CCN(CC)c1ccc(NC(=O)C2(N(C)C(=O)OCC(C)C)CCc3cccc(OC)c3C2)cc1 (racemic)
Resp: 21.7 mL/min/kg
